# inhibition zone (IZ) per record follows
- System: Streptococcus pyogenes
- test.protocol: Antibacterial activity against Streptococcus pyogenes at 1 mg/disk after 18 hrs at 36 degC by disk diffusion method
- Assay type: functional

# smiles.data, inhibition zone (IZ) / mm
measured = [
    ("CC[C@H](/C=C/[C@@H](C)[C@H]1CC[C@H]2[C@@H]3C4=C[C@]5(C[C@@H](Cl)CC[C@]5(C)[C@H]3CC[C@]12C)NC(=S)N4)C(C)C", 23.2),
    ("CC[C@H](/C=C/[C@@H](C)[C@H]1CC[C@H]2[C@@H]3C4=C[C@]5(C[C@@H](OC(C)=O)CC[C@]5(C)[C@H]3CC[C@]12C)NC(=O)N4)C(C)C", 12.4),
    ("CC(C)CCC[C@@H](C)[C@H]1CC[C@H]2[C@@H]3CC=C4C[C@@H](O)CC[C@]4(C)[C@H]3CC[C@]12C", 7.8),
    ("CC[C@H](/C=C/[C@@H](C)[C@H]1CC[C@H]2[C@@H]3C4=C[C@]5(C[C@@H](OC(C)=O)CC[C@]5(C)[C@H]3CC[C@]12C)NC(=S)N4)C(C)C", 21.6),
    ("CC[C@H](/C=C/[C@@H](C)[C@H]1CC[C@H]2[C@@H]3C4=C[C@]5(C[C@@H](Cl)CC[C@]5(C)[C@H]3CC[C@]12C)NC(=O)N4)C(C)C", 15.2),
]

====

Reported values of inhibition zone (IZ) for individual entries
- System: Escherichia coli
- test.protocol: Antibacterial activity against Escherichia coli at 1 mg/disk after 18 hrs at 36 degC by disk diffusion method
- Assay type: functional

# molecule, inhibition zone (IZ), mm
data = [
    ("CC[C@H](/C=C/[C@@H](C)[C@H]1CC[C@H]2[C@@H]3C4=C[C@]5(C[C@@H](Cl)CC[C@]5(C)[C@H]3CC[C@]12C)NC(=S)N4)C(C)C", 20.7),
    ("CC[C@H](/C=C/[C@@H](C)[C@H]1CC[C@H]2[C@@H]3C4=C[C@]5(C[C@@H](OC(C)=O)CC[C@]5(C)[C@H]3CC[C@]12C)NC(=O)N4)C(C)C", 16.3),
    ("CC[C@H](/C=C/[C@@H](C)[C@H]1CC[C@H]2[C@@H]3C4=C[C@]5(C[C@@H](OC(C)=O)CC[C@]5(C)[C@H]3CC[C@]12C)NC(=S)N4)C(C)C", 23.4),
    ("CC[C@H](/C=C/[C@@H](C)[C@H]1CC[C@H]2[C@@H]3C4=C[C@]5(C[C@@H](Cl)CC[C@]5(C)[C@H]3CC[C@]12C)NC(=O)N4)C(C)C", 14.8),
    ("CC(C)CCC[C@@H](C)[C@H]1CC[C@H]2[C@@H]3CC=C4C[C@@H](O)CC[C@]4(C)[C@H]3CC[C@]12C [CHOLESTEROL]", 9),
]

Value source: ChEMBL document CHEMBL1154449
